B1: Zinc finger MYM-type protein 6, residues 427 to 504; numbered along this chain, O95789 (parent)
chain: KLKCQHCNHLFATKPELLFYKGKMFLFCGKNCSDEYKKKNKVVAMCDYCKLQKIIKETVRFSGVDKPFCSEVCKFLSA

- Variants of: B1
- Test protocol: abundance fitness (aPCA) (normalised: wild type 0, dead -1); higher = more abundant; growth selection in yeast, the domain comes from the species named
- Assay conditions: Homo sapiens
Given measured abundance fitness, output Criterion met if it is greater than or equal to -0.06 and Criterion not met if not.

# Mutant designation, Class assignment
rows = [
    ("S62H", "Criterion met"),
    ("F75R", "Criterion met"),
]

In: Could you verify whether the entry `V72H` shows abundance fitness of no less than -0.06?
Out: Criterion met

In: Could you verify whether the entry `S62W` shows abundance fitness of no less than -0.06?
Out: Criterion not met

In: Could you verify whether the entry `K53M` shows abundance fitness of no less than -0.06?
Out: Criterion not met

In: Could you verify whether the entry `D47N` shows abundance fitness of no less than -0.06?
Out: Criterion not met

In: Could you verify whether the entry `D34V` shows abundance fitness of no less than -0.06?
Out: Criterion met
